- assayed system: Tau P301L (Homo sapiens, UniProt P10636, P618L)
- Construct: expressed in transfected cells
- Sequence (P10636 1-441 isoform P10636-8 P301L): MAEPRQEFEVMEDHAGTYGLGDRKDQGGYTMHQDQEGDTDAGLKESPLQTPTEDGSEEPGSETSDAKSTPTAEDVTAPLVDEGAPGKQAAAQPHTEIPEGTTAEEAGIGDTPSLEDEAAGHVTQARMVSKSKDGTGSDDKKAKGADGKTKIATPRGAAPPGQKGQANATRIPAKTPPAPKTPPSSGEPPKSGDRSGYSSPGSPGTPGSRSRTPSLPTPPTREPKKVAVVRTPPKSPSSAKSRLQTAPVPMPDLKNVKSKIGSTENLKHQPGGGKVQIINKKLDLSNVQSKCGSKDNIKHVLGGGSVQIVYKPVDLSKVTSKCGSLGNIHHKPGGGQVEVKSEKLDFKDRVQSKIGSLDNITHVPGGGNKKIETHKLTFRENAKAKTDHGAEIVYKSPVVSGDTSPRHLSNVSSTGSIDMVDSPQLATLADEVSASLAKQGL
- measurement protocol: In vitro tau degradation assay in CHOK1 Tau P301L cells (sarkosyl insoluble tau, WES)
- Assay type: cell-based
- condition notes: CHO-K1; remaining tau protein in sarkosyl insoluble pellet; CHOK1 Tau P301L cells treated 48 hours with test compound at 1 μM, doxycycline removed for the last 24 hours; relative to DMSO doxycycline control; read-out: Tau Protein Degradation effect at 1 μM
Each entry below carries its recorded remaining activity at 1 µM.

Known remaining activity at 1 µM results, listed for orientation:
INSERT INTO measurements (compound, assayed_system, observed_result) VALUES
  ('Cc1ncsc1-c1ccc([C@H](C)NC(=O)[C@@H]2C[C@@H](O)CN2C(=O)C(c2cc(OCCOCCOCCOc3ccc(-c4ccc5c(c4)[nH]c4ccncc45)cn3)no2)C(C)C)cc1 (stereo in doubt) [Compound 395]', 'Tau P301L (Homo sapiens, UniProt P10636, P618L)', '> 50%'),
  ('O=C1CCC(N2C(=O)c3ccc(OCCOCCOCCOCCOc4ccc5cc(-n6ccc7ccncc76)ncc5c4)cc3C2=O)C(=O)N1 (stereo not drawn) [Compound 384]', 'Tau P301L (Homo sapiens, UniProt P10636, P618L)', '> 50%');

Here is the next item to consider.
[in] What remaining activity at 1 µM value was documented for this compound, CN(C)c1ccn2cc(-c3ccc(OCCOCCOCCOc4ccc5c(c4)C(=O)N(C4CCC(=O)NC4=O)C5=O)cc3)nc2c1 (stereo not drawn) [Compound 440] ?
[out] > 50%
